System: T-47D breast
Experimental Details: NCI-60 one-dose screen, 48 h (100 = growth as untreated, 0 = no growth, -100 = all killed)
Recorded Conditions: 10 µM unless noted
This is part of a sample that, as a whole, favours compounds with a hit. Of some 83,000 tested, about 20% had one in any assay. Activity calls are given as the source filed them. Rule for the calls: active = growth percent below 10; inactive = the rest.
Experimental Endpoint: growth

CN1CC2CCC(C1)C2=O; 102% (inactive)
CC(=O)C1CCC2C3CC=C4CC(OC(=O)Cc5ccc(N(CCCl)CCCl)cc5)CCC4(C)C3CCC12C (centres undefined); 105% (inactive)
Cc1ccc(C[As+](c2ccccc2)(c2ccccc2)c2ccccc2)cc1; -3.86% (active)

Consider the compound C[C@]12CC[C@H](OC3OC(O)C(O)C(O)C3O)C=C1CCC1C2CC[C@]2(C)[C@@H](c3ccc(=O)oc3)CC[C@]12O (some centres undefined) and give its recorded growth.
-71.4% (active)

Consider the compound Fc1ccc(C2=NN(c3ccccc3)C(c3sc(N(CCCl)CCCl)nc3Cl)C2)cc1 (centres undefined) and give its recorded growth.
61.5% (inactive)

Consider the compound `Clc1ccc(SSC(Cl)(Cl)Cl)cc1` and give its recorded growth.
114% (inactive)

Consider the compound ClCCN(CCCl)c1nc(Cl)c(C2CC(c3ccc(Cl)cc3)=NN2c2cc(Cl)cc(Cl)c2)s1 (centres undefined) and give its recorded growth.
98.8% (inactive)

Consider the compound CC(C)C1c2ccc(O)cc2Oc2nc(N)c(C#N)c(N)c21 (centres undefined) and give its recorded growth.
87.5% (inactive)

Consider the compound `N#[N+]c1nc2nc(N)[nH]c(=O)c2[nH]1` and give its recorded growth.
100% (inactive)

Consider the compound `Oc1c(Br)cc(Br)cc1Br.[Cu+2]` and give its recorded growth.
119% (inactive)

Consider the compound CCCCCCCCCCCCOc1ccc(C(=O)Oc2ccc(CSP3(=O)OCC4OC(n5cnc6c(N)ncnc65)C(F)C4OP(=O)(O)OCC4OC(n5ccc(=O)[nH]c5=O)C(F)C4O3)cc2)cc1 (centres undefined) and give its recorded growth.
88.5% (inactive)

Consider the compound `CC(C)CCC1(CCO)C(=O)NC(=S)NC1=O` and give its recorded growth.
112% (inactive)

Consider the compound ClCCN(CCCl)C(c1ccccc1)c1ccc(Cl)cc1 (centres undefined) and give its recorded growth.
103% (inactive)

Consider the compound CSc1ccccc1NP1(=O)OCC(C)([N+](=O)[O-])CO1 (centres undefined) and give its recorded growth.
96% (inactive)
